Cited source for all entries: ChEMBL document CHEMBL4425138

For Protease (Human immunodeficiency virus 1, UniProt Q9YQ12), measured Ki is reported for the entries below.
Endpoint: Ki

* CC(C)CN(C[C@@H](O)[C@H](CC12CC3CC(CC(C3)C1)C2)NC(=O)O[C@H]1CO[C@H]2OCC[C@H]21)S(=O)(=O)c1ccc(N)cc1 | 0.73 nM
* COc1ccc(S(=O)(=O)N(CC(C)C)C[C@@H](O)[C@H](CC23CC4CC(CC(C4)C2)C3)NC(=O)O[C@@H]2CO[C@@H]3OCC[C@@H]32)cc1 | 1 nM
* COc1ccc(S(=O)(=O)N(CC(C)C)C[C@@H](O)[C@H](CC23CC4CC(CC(C4)C2)C3)NC(=O)O[C@@H]2CCOC2)cc1 | 2.8 nM
* COc1ccc(S(=O)(=O)N(C[C@@H](O)[C@H](CC23CC4CC(CC(C4)C2)C3)NC(=O)O[C@H]2CO[C@H]3OCC[C@H]32)c2ccccc2)cc1 | 1.1 nM

====

System: Human immunodeficiency virus 1
Protocol Text: Antiviral activity against multi-drug resistant HIV1C harboring protease L10I/I15V/K20R/L24I/M36I/M46L/I54V/I62V/L63P/K70Q/V82A/L89M mutant infected in human MT4 cells by p24 assay
Format: functional, organism-based
Condition Description: Human immunodeficiency virus 1, C
Recorded IC50 for the following molecules
Endpoint: IC50 (nM)

• CC(C)CN(C[C@@H](O)[C@H](Cc1ccccc1)NC(=O)O[C@H]1CO[C@H]2OCC[C@H]21)S(=O)(=O)c1ccc(N)cc1 = 30
• CC(C)CN(C[C@@H](O)[C@H](Cc1ccccc1)NC(=O)O[C@H]1CCOC1)S(=O)(=O)c1ccc(N)cc1 = 430
• COc1ccc(S(=O)(=O)N(CC(C)C)C[C@@H](O)[C@H](CC23CC4CC(CC(C4)C2)C3)NC(=O)O[C@H]2CO[C@H]3OCC[C@H]32)cc1 = 360

====

Recorded Ki for the following molecules
System Under Test: Protease (Human immunodeficiency virus 1)
Sequence (Q9YQ12 whole entry): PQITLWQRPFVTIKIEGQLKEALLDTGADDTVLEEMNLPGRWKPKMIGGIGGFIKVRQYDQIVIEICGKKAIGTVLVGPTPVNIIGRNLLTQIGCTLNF
Endpoint: Ki (nM)

- CC(C)CN(C[C@@H](O)[C@H](CC12CC3CC(CC(C3)C1)C2)NC(=O)O[C@H]1CCOC1)S(=O)(=O)c1ccc(N)cc1: 3.4
- COc1ccc(S(=O)(=O)N(CC(C)C)C[C@@H](O)[C@H](CC23CC4CC(CC(C4)C2)C3)NC(=O)O[C@@H]2CO[C@@H]3OCCC[C@@H]32)cc1: 24
- COc1ccc(S(=O)(=O)N(Cc2ccccc2)C[C@@H](O)[C@H](CC23CC4CC(CC(C4)C2)C3)NC(=O)O[C@H]2CO[C@H]3OCC[C@H]32)cc1: 8.5
- COc1ccc(S(=O)(=O)N(CC(C)C)C[C@@H](O)[C@H](CC23CC4CC(CC(C4)C2)C3)NC(=O)O[C@H]2CO[C@H]3OCC[C@H]32)cc1: 0.48
- COc1ccc(S(=O)(=O)N(CC(C)C)C[C@@H](O)[C@H](CC23CC4CC(CC(C4)C2)C3)NC(=O)O[C@H]2CO[C@H]3OCCC[C@H]32)cc1: 1.9
- COc1ccc(S(=O)(=O)N(CC(C)C)C[C@@H](O)[C@H](CC23CC4CC(CC(C4)C2)C3)NC(=O)O[C@H]2CCOC2)cc1: 0.54

====

System: Human immunodeficiency virus 1
Protocol Text: Antiviral activity against multi-drug resistant HIV1B harboring protease L10I/L33I/M36I/M46I/F53L/K55R/I62V/L63P/A71V/G73S/V82A/L90M/I93L mutant infected in human MT4 cells by p24 assay
Assay type: functional, organism-based
Condition Description: Human immunodeficiency virus 1, B
Recorded IC50 for the following compounds
Endpoint: IC50 (nM)

* CC(C)CN(C[C@@H](O)[C@H](Cc1ccccc1)NC(=O)O[C@H]1CCOC1)S(=O)(=O)c1ccc(N)cc1 | 860
* CC(C)CN(C[C@@H](O)[C@H](Cc1ccccc1)NC(=O)O[C@H]1CO[C@H]2OCC[C@H]21)S(=O)(=O)c1ccc(N)cc1 | 43
